System: HCT116 colon cancer cells
Assay: HCT116 cell viability and proliferation assay (MTS)
Format: cell-based
Settings: Homo sapiens, HCT-116, HCT116, 72 hours, read-out: Cell viability (MTS): HCT116 Gl50 Day 3
pIC50: −log10 of the molar value.
Value type: pIC50

Noted pIC50 for CN1CCN(CCCNC(=O)c2ccc3c(Cl)c4c(nc3c2)CCCC4)CC1 , tested on HCT116 colon cancer cells: 5.13

Noted pIC50 for CN(C)CCNC(=O)c1ccc2c(Cl)c3c(nc2c1)CCCC3 , tested on HCT116 colon cancer cells: 5.11

Noted pIC50 for O=C(c1ccc2c(Cl)c3c(nc2c1)CCCC3)N1CCCCCC1 , tested on HCT116 colon cancer cells: 4.70

Noted pIC50 for CCCN(CCC)CCNC(=O)c1ccc2c(Cl)c3c(nc2c1)CCCC3 , tested on HCT116 colon cancer cells: 5.46

Noted pIC50 for CCN(CCCNC(=O)c1ccc2c(Cl)c3c(nc2c1)CCCC3)Cc1ccccc1 , tested on HCT116 colon cancer cells: 5.40

Noted pIC50 for CCCN1CCN(CCCNC(=O)c2ccc3c(Cl)c4c(nc3c2)CCCC4)CC1 , tested on HCT116 colon cancer cells: 5.23

Noted pIC50 for CCCN(CCC)CCCNC(=O)c1ccc2c(Cl)c3c(nc2c1)CCCC3 , tested on HCT116 colon cancer cells: 5.41

Noted pIC50 for CCCCN(CC)CCNC(=O)c1ccc2c(Cl)c3c(nc2c1)CCCC3 , tested on HCT116 colon cancer cells: 5.40

A: CCN(CC)CCCNC(=O)c1ccc2c(Cl)c3c(nc2c1)CCCC3
B: O=C(c1ccc2c(Cl)c3c(nc2c1)CCCC3)N1CCC(N2CCCCC2)CC1
Identify the entry with the larger pIC50. Options: A and B Indicate which entry you chose by stating its label. A
